target: non-HIV aspartic proteases (BACE, cathepsin D, cathepsin E, pepsin, renin, and napsin); format: biochemical; details: IC50 considered equal to Ki(app); read-out: Ki(app), upper end of range over six non-HIV proteases
Metric: Ki

compound="CC(C)(CC1(c2ccc(-c3cnn(C4CC4)n3)cc2)NC(=N)N(C(COC(=O)NC2(C(F)F)CC2)c2ccc(Cl)c(-c3ncnn3C(F)F)c2)C1=O)C(F)(F)F (stereo not shown)" system_under_test="non-HIV aspartic proteases (BACE, cathepsin D, cathepsin E, pepsin, renin, and napsin)" result="> 100 µM"

* * *

tested on: HBV, HCV, RSV, SARS-CoV-2; test: Antiviral activity against panel of non-HIV viruses (summary); conditions: read-out: EC50 range across non-HIV viruses
Metric: EC50

compound="CC(C)(CC1(c2ccc(-c3cnn(C4CC4)n3)cc2)NC(=N)N(C(COC(=O)NC2(C(F)F)CC2)c2ccc(Cl)c(-c3ncnn3C(F)F)c2)C1=O)C(F)(F)F (stereo not shown) [GS-9770]" system_under_test="HBV, HCV, RSV, SARS-CoV-2" result="2.5 to 34 µM"

* * *

Experiment: In vivo pharmacokinetics in rat
Design: species or system Sprague-Dawley rat
Details: male, Sprague-Dawley, plasma, oral, 5 mg/kg, 1 mg/kg IV and 5 mg/kg PO, read-out: F% (oral bioavailability)
Protocol: Preclinical pharmacokinetic studies were performed in male Sprague–Dawley rats, beagle dogs, and cynomolgus monkeys (three animals per dosing group in each species) following federal and Institutional Animal Care and Use Committee (IACUC) guidelines as described previously ([32]). […] The oral fraction absorbed (F%) was calculated using the formula: %F=( PO Dose AUC0−inf) x (IV Dose)/(IV Dose AUC0−inf) x (PO Dose)×100%
Metric: bioavailability (%)

molecule="CC(C)(CC1(c2ccc(-c3cnn(C4CC4)n3)cc2)NC(=N)N(C(COC(=O)NC2(C(F)F)CC2)c2ccc(Cl)c(-c3ncnn3C(F)F)c2)C1=O)C(F)(F)F (stereo not shown)" units_text=% quantitative_readout=49

* * *

assay: in vitro; assay type: cell-based; details: human
Metric: CC50

compound="CC(C)(CC1(c2ccc(-c3cnn(C4CC4)n3)cc2)NC(=N)N(C(COC(=O)NC2(C(F)F)CC2)c2ccc(Cl)c(-c3ncnn3C(F)F)c2)C1=O)C(F)(F)F (stereo not shown)" result="15.1 µM"

* * *

test system: HIV-1IIIb; assay: Antiviral activity in MT-2/HIV-1IIIb cultures; format: cell-based; conditions: Human immunodeficiency virus 1
Metric: EC50 (nM)

compound="CC(C)(CC1(c2ccc(-c3cnn(C4CC4)n3)cc2)NC(=N)N(C(COC(=O)NC2(C(F)F)CC2)c2ccc(Cl)c(-c3ncnn3C(F)F)c2)C1=O)C(F)(F)F (stereo not shown) [GS-9770]" metric=EC50 units_text=nM quantitative_readout=4

* * *

Each entry below lists one item and its recorded pEC50 value.
tested on: HIV-1LAI wild type and site-directed PR mutants; experiment: microbe, parasite or virus in culture; format: cell-based; conditions: Human immunodeficiency virus 1, PR M46L A77I V82A
pEC50: −log10 of the molar value.
Metric: pEC50

molecule="CC(C)(CC1(c2ccc(-c3cnn(C4CC4)n3)cc2)NC(=N)N(C(COC(=O)NC2(C(F)F)CC2)c2ccc(Cl)c(-c3ncnn3C(F)F)c2)C1=O)C(F)(F)F (stereo not drawn)" system_under_test="HIV-1LAI wild type and site-directed PR mutants" metric=pEC50 quantitative_readout=8.08
molecule=O=C1Nc2ccc(Cl)cc2[C@@](C#CC2CC2)(C(F)(F)F)O1 system_under_test="HIV-1LAI wild type and site-directed PR mutants" metric=pEC50 quantitative_readout=9.00
molecule=COC(=O)N[C@H](C(=O)N[C@@H](Cc1ccccc1)[C@@H](O)CN(Cc1ccc(-c2ccccn2)cc1)NC(=O)[C@@H](NC(=O)OC)C(C)(C)C)C(C)(C)C system_under_test="HIV-1LAI wild type and site-directed PR mutants" metric=pEC50 quantitative_readout=8.16

* * *

experiment: In vivo pharmacokinetics in rat; design: species or system Sprague-Dawley rat; details: male, Sprague-Dawley, plasma, 1 mg/kg IV
Metric: clearance (mL/min/kg)

molecule="CC(C)(CC1(c2ccc(-c3cnn(C4CC4)n3)cc2)NC(=N)N(C(COC(=O)NC2(C(F)F)CC2)c2ccc(Cl)c(-c3ncnn3C(F)F)c2)C1=O)C(F)(F)F (stereo not shown)" quantitative_readout=3.5

* * *

experiment: Cytotoxicity in NHBE; format: cell-based; conditions: human, NHBE cells
Metric: CC50 (µM)

molecule="CC(C)(CC1(c2ccc(-c3cnn(C4CC4)n3)cc2)NC(=N)N(C(COC(=O)NC2(C(F)F)CC2)c2ccc(Cl)c(-c3ncnn3C(F)F)c2)C1=O)C(F)(F)F (stereo not shown) [GS-9770]" metric=CC50 quantitative_readout=4.7

* * *

experiment: Cytotoxicity in cell lines of the non-HIV virus panel (summary); assay type: cell-based; details: human, HepG2-NTCP, Huh7-Lunet replicon cells, NHBE, A549-ACE2, read-out: CC50 range in the corresponding cell lines
Metric: CC50

compound="CC(C)(CC1(c2ccc(-c3cnn(C4CC4)n3)cc2)NC(=N)N(C(COC(=O)NC2(C(F)F)CC2)c2ccc(Cl)c(-c3ncnn3C(F)F)c2)C1=O)C(F)(F)F (stereo not shown)" result="4.7 to 15.1 µM"

* * *

test system: HIV-1LAI wild type and site-directed PR mutants; test: microbe, parasite or virus in culture; assay type: cell-based; settings: Human immunodeficiency virus 1, Wild type (WT) HIV-1LAI
pEC50: −log10 of the molar value.
Metric: pEC50

compound=O=C1Nc2ccc(Cl)cc2[C@@](C#CC2CC2)(C(F)(F)F)O1 metric=pEC50 quantitative_readout=8.89
compound=COC(=O)N[C@H](C(=O)N[C@@H](Cc1ccccc1)[C@@H](O)CN(Cc1ccc(-c2ccccn2)cc1)NC(=O)[C@@H](NC(=O)OC)C(C)(C)C)C(C)(C)C metric=pEC50 quantitative_readout=8.24
compound="CC(C)(CC1(c2ccc(-c3cnn(C4CC4)n3)cc2)NC(=N)N(C(COC(=O)NC2(C(F)F)CC2)c2ccc(Cl)c(-c3ncnn3C(F)F)c2)C1=O)C(F)(F)F (stereo not drawn)" metric=pEC50 quantitative_readout=8.51
